- target_of_assay: aldose reductase (Bos taurus)
- Construct: partially purified aldose reductase is isolated in known manner from bovine lenses
- method_summary: In vitro inhibition of partially purified bovine lens aldose reductase (spectrophotometric)
- condition_label: partially purified aldose reductase from bovine lenses
observed_property: IC50
State the value, then name its unit.

### Prompt Quick check: IC50 of Cc1cc(NC(=O)COc2ccccc2)cc(C)c1S(=O)(=O)C[N+](=O)[O-] ?
### Response 44 nM
